- Tested on: MS2 coat protein
- test_method_notes: apparent Kd, MS2 coat protein; higher = weaker binding; RNA-MaP array; FMN 200 µM where present
- cond: designed as: OFF switch for flavin mononucleotide; no ligand
# binning rule on apparent Kd: 0: < 20 nM; 1: ≥ 20 nM and < 50 nM; 2: ≥ 50 nM

The following sequences have reported results that may help.
sequence_data	assigned_label
GUCAGCUCGUGAGGAUAUACAACACUGCUUUGGCAGUGUAUUAAGAUCACAUGAGGAUCACCCAUGUAGAAGGCACGAGCUGAU	0
UAUGGUUAAGUCAGGAUAUACGUGCAGUUUUCUGAGUAGAAGGGACAUGAGGAUCACCCAUGUAUGGUAGUGUU	2
GGUGUGUCAGGAUAUCAACACACGGCAGCAGCGUUAUGCGUUGAGAAGGGACAUGAGGAUCACCCAUGUGACGG	1
CCUCGACAUGAGGAUCACCCAUGUCAGGAUAUUGUGUUUCGGGUUUUUUACCGUUAGGCAAGAAGGGAUGUGUG	1
CUGUUCUGUGUAGGAUAUGCAUAUUCCCAUUAUGCAGAAGGACAUGAGGAUCACCCAUGUAUGUUAUUAUCAUGUGUUACAUGC	1
CCUCUACAUGAGGAUCACCCAUGUGAGGAUAUGCGAGGCACGCCCGAUGGGCGCGCCGGUAGAAGGCAUGUGGU	1
GAAUAAUUGAUCCAAUUUAACUACAUGAGGAUCACCCAUGUGCAGGAUAUCGUAAUAUUUAUUUUCGAGAAGGGCAAGAACGGU	2
UUGUUUGUAGUGAGGAUAUCGUUGAGGAAGAGGAUCGAGAAGGCACAUGAGGAUCACCCAUGUUAGAUGUGGUU	2
UGAGCAUCAGGAUAUACGUGACGACCGUGAGGUCGAAGGUUACAUGAGGAUCACCCAUGUAGAAGGGAUGUUCU	1
GUUCUCGGAGGAUAUACACAGUGAGAACCCGCGCAAGCGGGACAUGAGGAUCACCCAUGUAGAAGGUCGAGCAA	2

In: Categorize the following entry: CAGGUAGACUGAGGAUAUACACUAAACAGCUAGUCUAUCUAGCUGGUCACAUGAGGAUCACCCAUGUAGAAGGCAGUCUGCCUG
Out: 0

In: Categorize the following entry: GUGCAAUGAGGAUAUACGUUGGUGAACAUCUGUGUGCUCCUACAUGAGGAUCACCCAUGUAGAAGGCAUGUCAC
Out: 0

In: Categorize the following entry: GCCUUAUCCGUCAGGAUAUACAGUUGUUAGUUGUUGUAGAAGGGACAUGAGGAUCACCCAUGUACAUUACAUUG
Out: 1

In: Categorize the following entry: GCGUUGAACGAGAAGGCCACUACAUGAGGAUCACCCAUGUCGUGGAGUAUUGGAGGAUAUCGAUCGGCGUCUCAUGAGGACAUA
Out: 0

In: Categorize the following entry: UAUUAAUGCAAGGAUAUGCUAUUAAUUUAUUUUGCAGAAGGUGCAACAUGAGGAUCACCCAUGUUGGAGGGUAU
Out: 1

Origin of measurements: the EternaBench riboswitch data
